EXPERIMENT SUMMARY: cell viability in Huh7 cells, primary screen, cytotoxicity control for HCV replication inhibitor project, CellTiter-Glo luminescence, basal, 48 h (AID 1143);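 also: Huh7 hepatoma cells carrying a hepatitis C replication reporter with no stimulus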
TEST CONTEXT: Huh7 HCV replicon, higher = more signal, called active from +8 up or from −8 down
Calls of active or inactive are those of the source.
OUTCOME MEASURE: z-score

Some solved cases for reference:
STRUCTURE NOTATION	z-score
COC(=O)[C@@]1(Cc2ccc(OC)cc2)[C@H]2c3cc(C(=O)N4CCCC4)n(Cc4cccc5ccccc45)c3C[C@H]2CN1C(=O)c1ccccc1	-2.8 (inactive)
COCCOC(=O)N1C(=O)[C@@]2(c3cc(C#CCCO)ccc31)[C@H](c1ccccc1OCCO)N1[C@H](c3ccccc3)[C@H](c3ccccc3)OC(=O)[C@H]1[C@@H]2C(=O)Nc1nc2ccccc2s1	-0.99 (inactive)
CCCCCCc1nc(-c2cc(C)c(OC)c(C)c2)c(C)c2c1[Si](C(C)C)(C(C)C)OC2	-3.03 (inactive)

z-score reported for this molecule `C=CCOC(=O)[C@H]1[C@@H]2C(=O)O[C@@H](c3ccccc3)[C@@H](c3ccccc3)N2[C@@H](c2ccc(OCCOC(=O)[C@@H]3C[C@@H]4C(=O)N[C@@H](CCCCN(C)C)C(=O)N4[C@@H]3c3ccc(O)cc3)cc2)[C@]12C(=O)Nc1ccccc12` : -0.0273 (inactive)

Value of measured z-score for the entry `C[N+](C)(C)CCCC[C@@H]1NC(=O)[C@H]2C[C@@H](C(=O)NCCCCCCN)[C@@H](c3ccc(O)cc3)N2C1=O` : -0.548 (inactive)

----------
Test system: XIP peptide (Xip251-270)
EXPERIMENT SUMMARY: small-molecule binders of XIP peptide, primary screen, biochemical, small-molecule microarray, fluorescence 635/667 nm, 0.5 µg/mL protein (AID 1183)
TEST CONTEXT: small-molecule microarray binding, fluorescence 635 nm; higher = more signal
Label scheme for composite z-score: bottom bin = under 0.4, middle bin = from 0.4 up to 0.7, top bin = 0.7 and over

Here are 5 compounds together with their reported answers.
COMPOUND	ASSIGNED CLASS
[N-]=[N+]=Nc1ccccc1C[C@]1(C(=O)N2CCOCC2)N=C(c2ccc(OCCCO)cc2)O[C@H]1c1ccccc1	top bin
O=C1NC(=O)C2C1C=CC(C(O)c1cccc3ccccc13)N2Nc1ccc(Cl)cc1Cl (stereo unspecified)	middle bin
NC(=O)NCC#Cc1ccc2c(c1)[C@]1(C(=O)N2)[C@H](C(=O)O)[C@H]2C(=O)O[C@H](c3ccccc3)[C@H](c3ccccc3)N2[C@@H]1c1ccc(OCCO)cc1	middle bin
CCOC(=O)C[C@H]1[C@H](OC(=O)c2ccccc2-c2ccccc2)[C@@H](NC(=O)c2ccc(-c3ccccc3)cc2)c2cc(OCCCO)ccc2N1C(=O)c1ccc2ccccc2n1	middle bin
CC(C)(C)N1CC=CC23O[C@@H]4C=CCCOC(=O)C4[C@H]2C(=O)N(CCO)[C@@H]3C1=O (stereo partly specified)	bottom bin

query: Please let me know in which category the item `CN(C)CCCNC(=O)[C@@H]1c2ccccc2C(=O)N(Cc2ccccc2Cl)[C@H]1c1ccc(CO)cc1` belongs.
result: bottom bin

query: Which category fits this record: `O=C1O[C@@H](c2ccccc2)[C@@H](c2ccccc2)N2[C@@H](c3ccc(O)cc3)[C@]3(C(=O)Nc4ccc(C#CC5=CCCCC5)cc43)[C@@H](C(=O)NC[C@H](O)c3ccccc3)[C@H]12`
result: top bin

query: Assign a bin to `O=C(N1CCCCC1)[C@@]1(CCS(=O)(=O)c2ccccc2)COC(c2ccc(OCCCO)cc2)=N1`
result: top bin

query: Class (by measured composite z-score) for `C=CCN1Cc2ccccc2[C@H]2OC(c3ccc(OCCCO)cc3)=N[C@@]2(CC=C)C1=O`
result: top bin

query: Which bin, given its composite z-score, does Cn1cccc1C(O)C1C=CC2C(=O)NC(=O)C2N1Nc1ccc(Cl)cc1Cl (stereo unspecified) occupy?
result: top bin

query: Could you place `CCOC(=O)C[C@H]1[C@H](OC(=O)c2ccc(C(=O)c3ccccc3)cc2)[C@@H](NC(=O)Cc2ccc(OC)cc2)c2cc(OCCCO)ccc2N1C(=O)c1ccccc1` in its proper category? Many thanks.
result: bottom bin

query: # bin label for `COC(=O)[C@@]1(Cc2ccc(F)cc2)[C@H]2c3cc(C(=O)N4CCCC4)n(CCN4CNCC4=O)c3C[C@H]2CN1C(=O)c1ccccc1`
result: middle bin

query: Consider CC(c1ccccc1)C(O)C1C=CC2C(=O)N(c3ccccc3)C(=O)C2N1Nc1ccc([N+](=O)[O-])cc1 (stereo unspecified) . To which composite z-score class does it belong?
result: top bin

query: Category of O=C1NC(=O)C2C1C=CC(C(O)c1ccco1)N2Nc1ccccn1 (stereo unspecified) , please.
result: bottom bin

----------
EXPERIMENT SUMMARY: small-molecule microarray binders of probe aNog, primary screen, biochemical, biotinylated probe, 635/667 nm fluorescence (AID 1115);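 also: probe is biotinylated aNog protein used at 0.15 µg/mL for 1 h at 4 C; z-score combines 667 nm fluorescence of each spot with its signal to noise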
TEST CONTEXT: higher = more signal
As shown below, each of these molecules has a reported composite z-score value.
Form field (numeric): enter value without unit.

MOLECULE	OUTCOME MEASURE	QUANTITATIVE READOUT
CCOC(=O)C[C@H]1[C@H](OC(=O)Cc2ccc3c(c2)OCO3)[C@@H](NC(=O)CC(C)C)c2cc(OCCCO)ccc2N1C(=O)Cc1ccc(OC)cc1	composite z-score	-0.25
COc1ccc([Si](C)(C)[C@H]2[C@H](CCO)O[C@@]3(C(=O)N(Cc4cccc(N5C(=O)COc6ccccc65)c4)c4ccccc43)[C@@H]2C)cc1	composite z-score	0.26

Notebook: `CC(C)Cc1ccc(CN2CC[C@@H](NC(=O)Nc3ccccc3)C2)cc1` , composite z-score read as -0.164

Recorded composite z-score (molecule `O=C1O[C@H](c2ccccc2)[C@H](c2ccccc2)N2[C@H]1[C@@H](C(=O)O)[C@]1(C(=O)Nc3ccc(C#CC4=CCCCC4)cc31)[C@H]2c1ccc(O)cc1` ): -0.213

// composite z-score lookup, molecule = CN1C(=O)C2C=CC(C(O)c3ccccn3)N(N(c3ccccc3)c3ccccc3)C2C1=O (stereo not drawn) , result: 0.427

get_value(item= `C=CCOC(=O)[C@H]1[C@@H]2C(=O)O[C@@H](c3ccccc3)[C@@H](c3ccccc3)N2[C@@H](c2ccc(OCCOC(=O)[C@@H]3C[C@@H]4C(=O)N5CCC[C@H]5C(=O)N4[C@@H]3c3ccc(O)cc3)cc2)[C@]12C(=O)Nc1ccc(I)cc12` , readout=composite z-score) returns 0.633

`CCCCCCc1nc(C2CC2)cc2c1[Si](C(C)C)(C(C)C)OC2` yielded composite z-score of -0.0784

Looking up `COc1ccc(NC(=O)O[C@H]2[C@H](OC(=O)Nc3ccccc3)[C@@H](OC(=O)Nc3ccccc3)[C@@H](OC)O[C@@H]2CO)cc1` , I see its composite z-score listed as 0.564

For `COC(=O)[C@@]1(Cc2ccc(OC)cc2)[C@H]2c3cc(C(=O)N(C)C)n(Cc4ccc(Cl)c(C(F)(F)F)c4)c3C[C@H]2CN1C(=O)c1ccccc1` the molecule record lists composite z-score as 2.18

What the record says about `CC1=C([C@H](O)CCc2ccccc2)[C@H](CO)[C@@H]2C(=O)N(C)C(=O)[C@@H]2C1` : composite z-score is -0.416

Summary for this molecule, `C=CCN1C(=O)[C@@]2(O[C@@H](CCn3cc([C@H](O)c4ccccc4)nn3)[C@H]([Si](C)(C)c3ccc(OC)cc3)[C@H]2C)c2cc(N3CCC3=O)ccc21` : composite z-score is 0.15

----------
EXPERIMENT SUMMARY: adipocyte viability effects, profiling panel, cell-based, 3T3-L1 adipocytes, calcein-AM fluorescence, 48 h, basal (AID 1163)
TEST CONTEXT: 3T3-L1 adipocytes viability, higher = more signal
Criterion: z-score strictly under 0.3. Met: class 1. Not met: class 0.

Study these solved cases before continuing.
MOLECULE	ASSIGNED CLASS
COc1ccccc1CN1C(=O)c2ccccc2[C@@]2(Cc3ccccc3N(CC(F)(F)F)C2=O)[C@@H]1c1ccc(CO)cc1	class 1
[N-]=[N+]=NCc1ccccc1C[C@@]1(C(=O)N2CCOCC2)N=C(c2ccc(OCCCO)cc2)O[C@@H]1c1ccccc1	class 0
COC(=O)[C@@]1(Cc2ccc(OC)cc2)[C@@H]2C(=CC(=O)[C@H]2CC(=O)C(=O)N(C)C)CN1C(=O)c1ccccc1	class 1
O=C(N1CCCCC1)[C@@]1(CCS(=O)(=O)c2ccccc2)COC(c2ccc(OCCCO)cc2)=N1	class 1
CN1C(=O)C2C=CC(C(O)c3cccc(O)c3)N(Nc3ccccc3)C2C1=O (centres undefined)	class 1
CC(c1ccccc1)C(O)C1C=CC2C(=O)N(c3ccccc3)C(=O)C2N1Nc1ccc([N+](=O)[O-])cc1 (centres undefined)	class 1

Moving on to the next molecule.
query: hey, is z-score for `COc1cc(CO)cc(I)c1O[C@H]1C=C(C(=O)NCCO)C[C@@H](NCc2ccc(F)cc2)[C@@H]1O` lower than 0.3 or not?
result: class 0
